The entries below come with measured pKd values attached.
TESTED ON: T1, cyno PAI-1 captured on immobilized human vitronectin (cynomolgus monkey; human, UniProt P04004 20-478, limits assumed)
T1 construct: non-covalent complex formed on the chip; also called cPAI-1/Vn
T1 sequence (chain, as listed by the source limits assumed, chain 1 of 2): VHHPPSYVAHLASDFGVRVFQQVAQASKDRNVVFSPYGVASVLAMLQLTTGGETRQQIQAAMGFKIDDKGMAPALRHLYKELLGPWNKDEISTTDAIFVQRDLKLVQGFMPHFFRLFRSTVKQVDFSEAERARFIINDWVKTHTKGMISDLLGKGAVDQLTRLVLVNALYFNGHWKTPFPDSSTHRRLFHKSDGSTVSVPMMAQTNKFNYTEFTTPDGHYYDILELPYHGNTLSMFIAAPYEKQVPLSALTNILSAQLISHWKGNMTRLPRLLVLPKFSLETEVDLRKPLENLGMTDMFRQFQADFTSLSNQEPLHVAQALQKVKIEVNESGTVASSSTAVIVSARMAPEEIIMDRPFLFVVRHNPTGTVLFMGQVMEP
T1 sequence (P04004 20-478 limits assumed, chain 2 of 2): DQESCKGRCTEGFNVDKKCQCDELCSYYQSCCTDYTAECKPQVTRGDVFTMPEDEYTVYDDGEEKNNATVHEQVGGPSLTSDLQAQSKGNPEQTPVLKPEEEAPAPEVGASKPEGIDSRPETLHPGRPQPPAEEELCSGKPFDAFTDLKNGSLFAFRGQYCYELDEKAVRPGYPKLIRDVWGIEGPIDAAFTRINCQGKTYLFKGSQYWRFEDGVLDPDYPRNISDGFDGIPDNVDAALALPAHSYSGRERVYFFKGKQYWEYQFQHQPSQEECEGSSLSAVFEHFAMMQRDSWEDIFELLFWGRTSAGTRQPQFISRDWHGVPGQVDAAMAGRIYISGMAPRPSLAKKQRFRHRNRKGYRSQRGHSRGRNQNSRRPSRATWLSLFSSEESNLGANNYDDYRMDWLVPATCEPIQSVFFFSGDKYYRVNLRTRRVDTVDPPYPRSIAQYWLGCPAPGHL
RUN DESCRIPTION: Biacore, cPAI-1 on vitronectin chip, two state reaction model
In plain terms, pKd is the concentration in mol/L turned into minus its base-10 logarithm.

Please review the following examples before continuing.
A44-hv1 (antibody, V domains shown, humanized A44, HEK293; also called LC1a x HC1a; variant 1) VH: EMTLKESGPTLVKPTQTLSLTCSVTGDSMTNGYWNWIRKFPGKALEYMGYITYSGSTYYNPSLKGRISITRNTSKNQYYLTLSSVTTVDTATYYCARWHYGSPYYFDYWGQGTTLTVSS VL: DIKMTQSPSSLSASVGDRVTITCKASQDINSYLSWLQQKPGKSPKTLIYRANRSVDGVPSRFSGSGSGQDYSLTISSLQPEDLGIYYCLQYDEFPPTFGGGTKLEIK; 8.61
A44-hv11 (antibody, V domains shown, humanized A44, HEK293; compared with a human IgG1 isotype control; constant regions as for A44-hv1; also called A44V11; A44v11) VH: QMTLKESGPTLVKPTQTLSLTCSVSGDSMTNGYWNWIRQFPGKALEYMGYITYSGSTYYNPSLKGRITITRDTSKNQYYLTLSSVTTVDTATYYCARWHYGSPYYFDYWGQGTTLTVSS VL: DIKMTQSPSSLSASVGDRVTITCKASQDINSYLSWLQQKPGKSPKTLIYRAQRSVEGVPSRFSGSGSGQDYSLTISSLQPEDLGIYYCLQYDEFPPTFGGGTKLEIK; 9.41

Problem: pKd lookup needed for A44-hv7 (antibody, V domains shown, humanized A44, HEK293; constant regions as for A44-hv1; also called LC4 x HC4; variant 7) VH: QMTLKESGPTLVKPTQTLSLTCSVSGESMTQGYWNWIRQFPGKALEYMGYITYSGSTYYNPSLKGRITITRQTSKNQYYLTLSSVTTVETATYYCARWHYGSPYYFDYWGQGTTLTVSS VL: DIKMTQSPSSLSASVGDRVTITCKASQDINSYLSWLQQKPGKSPKTLIYRAQRSVEGVPSRFSGSGSGQDYSLTISSLQPEDLATYYCLQYDEFPPTFGGGTKLEIK , thanks.
Solution: 10.02
